# target: Receptor tyrosine-protein kinase erbB-2 (Homo sapiens)
# protocolNotes: reducers of endogenous Her2 protein level, primary screen, SKBR3 breast tumor cells, AlphaScreen, ATP viability (AID 461)
# conditionParameters: 18-24 h, at 10 µM, stronger effect = lower value
The source made the active and inactive calls.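 How the source made its calls: active means Her2 level under about 52% in both replicate screens, with viability over 70% of control (limit read from the data); inconclusive means Her2 under the limit in one screen only, or viability under 70%; inactive means Her2 level above the set limit.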
assayReadout: Her2 level

Recorded Her2 level, per entry:
What Her2 level value was documented for this compound, COc1ccc(-c2cc(C(F)(F)F)nc(SCCC(=O)N3CCOCC3)n2)cc1 ?
90.5% (inactive)

Repeat for the following compound: O=C(NCCO)c1cccc2c1C(=O)c1ccccc1-2
95.5% (inactive)

Try the compound NC(=O)c1c(NC(=O)CN2CCCC2)sc2c1CCCC2
114% (inactive)

New cases:
Record request: Her2 level value, item Cc1ccc(C(=O)C2COC(=O)C2)cc1 (configuration not stated)
80.5% (inactive)

CCOC(=O)C(C)n1cnc2c(nnn2Cc2ccc(C)cc2)c1=O (configuration not stated) , same question.
95.5% (inactive)

Next up: O=c1[nH]c(SCc2ccccc2Cl)nc2c1CCCC2
75.5% (inactive)

Next record, please: CCN(CC)C(=O)CSc1nc2ccc(NC(=O)CSc3nccn3C)cc2s1
93.5% (inactive)

Quick one: CCN(CC)c1ccc(/C=N/n2nnnc2N)c(O)c1
80% (inactive)

Next compound up: CCCCOc1ccc(CSc2n[nH]c(C)n2)cc1
99.5% (inactive)

What do we get for O=S(=O)(NCCSc1ccccc1)c1cccs1 ?
86% (inactive)

One more compound: Nn1c(SCC(=O)Nc2ccc3c(c2)OCCO3)nnc1C(F)(F)F
78.5% (inactive)

Try this compound too: Cc1ccc(CCNC(=O)Cn2cccc2)cc1
98% (inactive)

Now the compound O=C1N(CCCCN2C(=O)C3(OCCO3)c3ccccc32)c2ccccc2C12OCCO2
84.5% (inactive)

Another compound to look at: CN(C)CCCN1C(=O)c2oc3ccccc3c(=O)c2C1c1cccs1 (configuration not stated)
93.5% (inactive)

And CN1CC(=O)N(CC(=O)NCCc2ccc(F)cc2)c2ccccc2C1=O ?
90.5% (inactive)

Let us now turn to CCn1c(=N)n(CC(O)c2ccco2)c2ccccc21 (configuration not stated)
119% (inactive)

Entry COc1ccc2c(c1)C(C)=CC(C)(C)N2C(=O)C(C)N1C(=O)c2ccccc2C1=O (configuration not stated) please
104% (inactive)

And then CCOC(=O)N1CCN(C(=O)CSc2ncnc3ccccc23)CC1 , what is it?
96% (inactive)

Try the compound CCCCn1cnc2c(cnn2-c2ccc(Cl)cc2)c1=O
87% (inactive)

Also need Cc1c(NC2=NC3(CCCCC3)Cc3ccccc32)c(=O)n(-c2ccccc2)n1C , thanks.
108% (inactive)

Query Cc1cc(C)n(CCCNC(=O)c2ccc3c(c2)NC(=O)CS3)n1 next
80.5% (inactive)

Now the same for CSCCC(C(=O)Nc1ccc2c(c1)OCO2)N1C(=O)c2ccccc2C1=O (configuration not stated)
79% (inactive)

# iterate: Cc1cccc(NC(=O)CSc2nnc(-c3cc(C)n(-c4ccccc4)c3C)o2)c1C
91% (inactive)

Can you check COc1ccc(C)cc1NCc1cccc(OC)c1OC next?
90.5% (inactive)
